pIC50: −log10 of the molar value.
// merged dataset of pIC50 values, system = LIM domain kinase 1 (Homo sapiens, UniProt P53667), multiple refs
Sequence (P53667 whole entry, the tested form may be a part): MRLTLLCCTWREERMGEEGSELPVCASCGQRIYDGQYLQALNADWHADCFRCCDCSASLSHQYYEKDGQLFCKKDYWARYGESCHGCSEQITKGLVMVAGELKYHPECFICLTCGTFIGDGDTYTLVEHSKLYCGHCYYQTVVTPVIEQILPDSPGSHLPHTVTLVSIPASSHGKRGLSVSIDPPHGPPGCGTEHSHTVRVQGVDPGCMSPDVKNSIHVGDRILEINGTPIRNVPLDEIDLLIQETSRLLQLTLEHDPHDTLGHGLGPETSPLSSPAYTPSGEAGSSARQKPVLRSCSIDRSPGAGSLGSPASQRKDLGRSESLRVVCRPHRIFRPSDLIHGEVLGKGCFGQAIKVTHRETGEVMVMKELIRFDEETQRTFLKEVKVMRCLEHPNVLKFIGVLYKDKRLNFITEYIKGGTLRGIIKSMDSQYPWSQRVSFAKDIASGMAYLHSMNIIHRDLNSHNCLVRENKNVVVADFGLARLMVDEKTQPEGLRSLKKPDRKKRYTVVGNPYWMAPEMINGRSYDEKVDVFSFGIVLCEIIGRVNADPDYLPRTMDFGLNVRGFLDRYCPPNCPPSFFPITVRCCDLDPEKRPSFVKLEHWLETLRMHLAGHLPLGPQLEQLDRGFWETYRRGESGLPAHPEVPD
If the reported pIC50 equals or exceeds 6, assign criterion met. If not, assign criterion not met.

These recorded examples may help you get a feel for the data.
INSERT INTO measurements (smilescode, studysystem, category) VALUES
  ('Nc1c(C(=O)O)sc2ncccc12', 'LIM domain kinase 1 (Homo sapiens, UniProt P53667)', 'criterion not met'),
  ('NNC(=O)c1sc2ncccc2c1N', 'LIM domain kinase 1 (Homo sapiens, UniProt P53667)', 'criterion not met'),
  ('Cc1cc(C)c2c(N)c(C(N)=O)sc2n1', 'LIM domain kinase 1 (Homo sapiens, UniProt P53667)', 'criterion not met'),
  ('CC(C)(C)NS(=O)(=O)c1cncc(-c2ccn3nc(N)nc3c2)c1', 'LIM domain kinase 1 (Homo sapiens, UniProt P53667)', 'criterion not met'),
  ('NC(=O)c1cc2ccccc2s1', 'LIM domain kinase 1 (Homo sapiens, UniProt P53667)', 'criterion not met'),
  ('COC(=O)c1cccc(NC(=O)C2(N)CCN(c3ccncn3)CC2)c1', 'LIM domain kinase 1 (Homo sapiens, UniProt P53667)', 'criterion not met'),
  ('CCC(CC)Oc1cc(C)c(-c2cc(-c3cnc(NC(=O)OC)s3)nc(-c3cnccn3)n2)c(C)c1', 'LIM domain kinase 1 (Homo sapiens, UniProt P53667)', 'criterion met'),
  ('CCCNc1ncc(-c2cc(-c3c(Cl)cc(OCCC)cc3Cl)nc(-c3cnccn3)n2)s1', 'LIM domain kinase 1 (Homo sapiens, UniProt P53667)', 'criterion met'),
  ('C[C@H](Nc1nc(Nc2cn(C)cn2)c2cc[nH]c2n1)c1ncc(F)cn1', 'LIM domain kinase 1 (Homo sapiens, UniProt P53667)', 'criterion met'),
  ('CCCNc1ncc(-c2cc(-c3c(Cl)cc(OC(CC)CC)cc3Cl)nc(-c3cnccn3)n2)s1', 'LIM domain kinase 1 (Homo sapiens, UniProt P53667)', 'criterion met');

Let us examine a further case.
Req: Is it the case that Cc1cc(NC(=O)Nc2ccc(-c3ncnc4[nH]cc(C)c34)cc2F)ccn1 has pIC50 reaching or exceeding 6?
Resp: criterion met
